target: human factor XIa (Homo sapiens, UniProt P03951); construct: purchased Kordia; test: Measurement of FXIa inhibition (fluorogenic peptide substrate); type: biochemical; settings: human factor XIa from Kordia, substrate Boc-Glu(OBzl)-Ala-Arg-AMC, 30 min at 22° C.; read-out: IC50 (FXIa inhibition)
Sequence (P03951 388-625 limits assumed): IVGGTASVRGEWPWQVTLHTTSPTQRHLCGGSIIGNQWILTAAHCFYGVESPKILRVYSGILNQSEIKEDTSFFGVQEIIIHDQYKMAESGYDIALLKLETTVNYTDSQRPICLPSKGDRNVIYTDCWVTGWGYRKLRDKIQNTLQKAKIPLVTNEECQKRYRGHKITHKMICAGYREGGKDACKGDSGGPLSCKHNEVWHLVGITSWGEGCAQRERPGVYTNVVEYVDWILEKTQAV
Sequence (P03951 19-387 partner limits assumed): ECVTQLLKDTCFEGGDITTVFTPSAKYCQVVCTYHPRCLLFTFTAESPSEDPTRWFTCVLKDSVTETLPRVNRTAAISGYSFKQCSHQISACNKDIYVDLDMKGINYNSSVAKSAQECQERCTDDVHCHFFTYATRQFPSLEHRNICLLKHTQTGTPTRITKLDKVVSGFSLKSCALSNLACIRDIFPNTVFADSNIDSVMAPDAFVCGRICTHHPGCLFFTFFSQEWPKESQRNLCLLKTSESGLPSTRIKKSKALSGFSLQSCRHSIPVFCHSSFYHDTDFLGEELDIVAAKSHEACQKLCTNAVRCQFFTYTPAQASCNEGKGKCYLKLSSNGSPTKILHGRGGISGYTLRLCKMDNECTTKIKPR
pIC50: −log10 of the molar value. Counter-ions that a name gives are not always drawn.
METRIC_NAME: pIC50

For the molecule Cc1nc(C(=O)NC2CCC(N(C)C)CC2)ccc1-c1ccc(C[C@H](NC(=O)[C@H]2CC[C@H](CN)CC2)C(=O)Nc2ccc(-c3nn[nH]n3)cc2)cc1 (some centres unmarked) [Example 2, hydrochloride] , what pIC50 is on record?
8.72

For the molecule CCN(CC)CCCNC(=O)c1ccc(-c2ccc(C[C@H](NC(=O)[C@H]3CC[C@H](CN)CC3)C(=O)Nc3ccc(-c4nn[nH]n4)cc3)cc2)c(C)n1 [Example 24, hydrochloride] , what pIC50 is on record?
8.22

(a) Cc1nc(C(=O)NC(C)C)ccc1-c1ccc(C[C@H](NC(=O)[C@H]2CC[C@H](CN)CC2)C(=O)Nc2ccc3c(=O)[nH][nH]c3c2)cc1 [Example 39, hydrochloride]
(b) Cc1nc(C(=O)N[C@H]2CCCNC2=O)ccc1-c1ccc(C[C@H](NC(=O)[C@H]2CC[C@H](CN)CC2)C(=O)Nc2ccc(-c3nn[nH]n3)cc2)cc1 [Example 4, hydrochloride]
(c) Cc1nc(C(=O)NC(C)C)ccc1-c1ccc(C[C@H](NC(=O)[C@H]2CC[C@H](CN)CC2)C(=O)Nc2cc(Cl)c3oc(=O)[nH]c3c2)cc1 [Example 38, hydrochloride]
Arrange these molecules by their pIC50, starting with the largest number. Put the labels in the requested order and write them down.
b, a, c
